B1: tRNA (parent)
chain: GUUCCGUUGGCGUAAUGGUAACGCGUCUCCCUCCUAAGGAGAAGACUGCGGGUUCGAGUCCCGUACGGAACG

variants of: B1; assay: yeast fitness relative to wild type (ratio to wild type); higher = fitter; tRNA-Arg(CCU), competitive growth, 37 C, YPD
Variants at the floor of the assay were thinned out.
READOUT KIND: yeast fitness

Reference set (2 entries):
{"POLYMER SEQUENCE": "GUUCCGUCGGCGUAAUGGUAACGCGUAUCCCUCCUAAGGAGAAGACAGCGGGUUCCAGUCCCGUACGGCACG [U8C C27A U47A G56C A69C]", "yeast fitness": "≤ 0.5"}
{"POLYMER SEQUENCE": "GUUCCGUUGGCGCACUGGUAACGCGUCUCCCUCCUAAGGAGAAGACUACGGGUUCGAGUCCCGUACGGAACG [U13C A15C G48A]", "yeast fitness": "≤ 0.5"}

Please turn your attention to the following entry.
Query: Determine its reported yeast fitness: GUUCCGUUGGCGUAAUGGUAACGCGUCUCCCCCCUAAGGAGAAGACUGCGAGUUCGAGUCCCGUACGGAACG [U32C G51A]
Result: 0.851
